- target-or-system: T1, human CD70, recombinant, N-terminally biotinylated (residues 39-193) (human, UniProt P32970 39-193, N-terminal biotin)
- T1 construct: range 39-193; the same entry is used there; also called biotinylated human CD70; CD70 biotin
- T1 sequence (looked up): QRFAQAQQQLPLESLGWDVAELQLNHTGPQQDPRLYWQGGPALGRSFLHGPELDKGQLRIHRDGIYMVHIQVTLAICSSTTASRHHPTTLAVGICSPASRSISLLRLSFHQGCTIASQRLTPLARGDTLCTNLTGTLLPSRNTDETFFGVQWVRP
- experiment: SPR
experimental-endpoint: Kd (nM)
Report the value in nM with no unit label.

Observe how each entry below is paired with its result.
INSERT INTO results (binder, quantity_unit, reported_value) VALUES
  ('13-TC7-I-E11 (scFv, His-tagged) scFv: QVQLQQWGAGLLKPSETLSLTCAVYGGSFSGYYWSWIRQPPGKGLEWIGEINHSGSTNYNPSLKSRVTISVDTSKNQFSLKLSSVTAADTAVYYCARSRRPYWYFDLWGRGTLVTVSSGGSGGSGGSGGSQSVLTQPPSVSGAPGQRVTISCTGSSSNIGAGYDVHWYQQLPGTAPKLLIYGDSNRPSGVPDRFSGSGSGTSASLAITGLQAEDEGDYYCQSFDSNLSRYVFGAGTKLTVL', 'nM', 44.7),
  ('58-TC7-III-G11 (scFv, His-tagged) scFv: EVQLVQSGGGVVQPGRSLRLSCAASGFTFSSYAMHWVRQAPGKGLEWVAVISYDGSNKYYADSVKGRFTISRDNSKNTLYLQMNSLRAEDTAVYYCATNSGYDSDYYYGMDVWGQGTTVTVSSGGSGGSGGSGGSQSVLTQPPSMSGAPGQRVTISCTGSSSNIGAGYDVHWYQHLPGTGPKLLIHGNTNRPSGVPDRFSGSKSGTSASLAITGLQAEDEADYYCQSYDNSLGGYVVFGGGTKVTVL', 'nM', 8900),
  ('13-TC7-V-H10 (scFv, His-tagged) scFv: QVQLQQWGAGLLKPSETLSLTCAVYGGSFSGYYWSWIRQPPGKGLEWIGEINHSGSTNYNPSLKSRVTISVDTSKNQFSLKLSSVTAADTAVYYCARSRRPYWYFDLWGRGTLVTVSSGGSGGSGGSGGSQSALTQPASVSGSPGQSITISCTGTSSDVGGYNSVSWYRQHPGKAPKLMIYDVTNRPSGVSNRFSGSKSGNTASLTISGLQAEDEADYYCSSSSISATWVFGGGTKLTVL', 'nM', 66.9);

Next:
Summary for this binder, 40-TC7-VI-F11 (scFv, His-tagged) scFv: EVQLVESGGGVVQPGRSLRLSCAASGFTFSSYAMHWVRQAPGKGLEWVAVISYDGSNKYYADSVKGRFTISRDNSKNTLYLQMNSLRAEDTAVYYCARDGYGFDYWGQGTLVTVSSGGSGGSGGSGGSSYELTQSPSVSVAPGQTARITCGGNNIGSKSVHWYQQKPGQAPVLVVYDDSDRPSGIPERFSGSNSGNTATLTISRVEAGDEADYYCQVWDSSTPYVFGTGTKLTVL : Kd is 279
